B1: LINE1-full (parent)
chain: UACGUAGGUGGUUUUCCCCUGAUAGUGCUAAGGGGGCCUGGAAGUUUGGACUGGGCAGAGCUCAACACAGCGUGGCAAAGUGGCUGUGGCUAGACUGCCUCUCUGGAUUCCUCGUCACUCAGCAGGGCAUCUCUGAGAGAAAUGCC

- Variants of: B1
- assay: self-cleavage, relative activity (ratio to wild type); higher = more cleavage; in vitro, sequencing; the parent is a self-cleaving ribozyme

{"variant-identifier": "G82U A92U", "self-cleavage": 0.43}
{"variant-identifier": "U87C U130A", "self-cleavage": 0.19}
{"variant-identifier": "U12C G54A", "self-cleavage": 0.62}
{"variant-identifier": "C3U U62A", "self-cleavage": 0.2}
{"variant-identifier": "G33A A140G", "self-cleavage": 1.29}
{"variant-identifier": "U15C A140U", "self-cleavage": 1.61}
{"variant-identifier": "A57U A117U", "self-cleavage": 0.13}
{"variant-identifier": "A31U U47C", "self-cleavage": 1.08}
{"variant-identifier": "A121U U134C", "self-cleavage": 1.35}
{"variant-identifier": "A117G A142G", "self-cleavage": 1.25}
{"variant-identifier": "G54A G75C", "self-cleavage": 0.33}
{"variant-identifier": "G83A U143C", "self-cleavage": 0.71}
{"variant-identifier": "A30G A50U", "self-cleavage": 0.89}
{"variant-identifier": "U15A A42G", "self-cleavage": 1.31}
{"variant-identifier": "C38A A50G", "self-cleavage": 0.51}
{"variant-identifier": "A57U A77U", "self-cleavage": 0.05}
{"variant-identifier": "U39A C66U", "self-cleavage": 0.05}
{"variant-identifier": "U104A C113A", "self-cleavage": 0.91}
{"variant-identifier": "U13C", "self-cleavage": 1.15}
{"variant-identifier": "A69G C133A", "self-cleavage": 0.47}
{"variant-identifier": "A6G A24U", "self-cleavage": 1.21}
{"variant-identifier": "C19A U112G", "self-cleavage": 0.85}
{"variant-identifier": "A67U U134A", "self-cleavage": 0.08}
{"variant-identifier": "C71G A124G", "self-cleavage": 0.25}
{"variant-identifier": "U39C G54U", "self-cleavage": 0.39}
{"variant-identifier": "U39C U85C", "self-cleavage": 0.18}
{"variant-identifier": "C18U U143C", "self-cleavage": 1.11}
{"variant-identifier": "U46C U87A", "self-cleavage": 0.13}
{"variant-identifier": "U1C U46C", "self-cleavage": 1.11}
{"variant-identifier": "U47A C84A", "self-cleavage": 0.14}
{"variant-identifier": "A77C C116U", "self-cleavage": 1.04}
{"variant-identifier": "U15A U100C", "self-cleavage": 0.91}
{"variant-identifier": "U45A U102A", "self-cleavage": 1.36}
{"variant-identifier": "G32A G83U", "self-cleavage": 0.83}
{"variant-identifier": "U14C C145G", "self-cleavage": 0.63}
{"variant-identifier": "A30C U87C", "self-cleavage": 0.64}
{"variant-identifier": "U104G U130C", "self-cleavage": 0.75}
{"variant-identifier": "A67U A121G", "self-cleavage": 0.15}
{"variant-identifier": "G32C U85C", "self-cleavage": 0.27}
{"variant-identifier": "A6U A59G", "self-cleavage": 0.11}
{"variant-identifier": "U85A U134C", "self-cleavage": 0.13}
{"variant-identifier": "A67G", "self-cleavage": 0.5}
{"variant-identifier": "C37U G54U", "self-cleavage": 0.41}
{"variant-identifier": "U112C G125A", "self-cleavage": 1.6}
{"variant-identifier": "A69U U134C", "self-cleavage": 0.09}
{"variant-identifier": "U85C G86U", "self-cleavage": 0.07}
